IC50 for assorted compounds
- measured.target: Glucose-6-phosphate 1-dehydrogenase (Homo sapiens, UniProt P11413)
- Sequence (P11413 whole entry): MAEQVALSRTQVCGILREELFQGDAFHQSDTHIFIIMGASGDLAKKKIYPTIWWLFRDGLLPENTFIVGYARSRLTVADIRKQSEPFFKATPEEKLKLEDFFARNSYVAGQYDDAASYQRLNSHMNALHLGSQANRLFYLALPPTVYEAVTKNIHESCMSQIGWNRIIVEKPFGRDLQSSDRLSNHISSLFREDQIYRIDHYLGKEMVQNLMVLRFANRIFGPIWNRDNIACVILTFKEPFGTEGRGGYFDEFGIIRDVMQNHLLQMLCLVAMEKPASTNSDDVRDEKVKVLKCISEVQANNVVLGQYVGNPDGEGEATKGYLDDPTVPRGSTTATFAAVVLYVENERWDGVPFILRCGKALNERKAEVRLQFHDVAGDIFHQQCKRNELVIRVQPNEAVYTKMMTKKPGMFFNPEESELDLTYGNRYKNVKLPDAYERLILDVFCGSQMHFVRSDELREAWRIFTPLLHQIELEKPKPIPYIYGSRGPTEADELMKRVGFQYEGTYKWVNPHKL
- test.method.notes: inhibition of Homo sapiens G6PD, dose series – biochemical, fluorescence, selectivity assay for P. falciparum G6PD inhibitor project, dose response (AID 504792)
- Type: functional
The source made the active and inactive calls. No stated cut-off is given here; in the data, active = IC50 of 20 µM or less and inactive = more.

The cases that follow already have their IC50 on record.
O=S(=O)(Nc1cccc2cccnc12)c1ccccc1    51.9 µM (inactive)
CCN(CC)CCNC(=O)CCCCn1c(=S)[nH]c2c([nH]c3ccc(OC)cc32)c1=O    > 80 µM (inactive)
CCc1ccccc1N1CSC2=C(C#N)C(c3ccccc3F)CC(=O)N2C1 (stereo not given)    > 80 µM (inactive)
C#CCCc1cscc1/C=[N+](\[O-])c1ccc(C(=O)OCC)cc1    29.7 µM (inactive)

Below: the item to evaluate.
Ask: Field: IC50 (Glucose-6-phosphate 1-dehydrogenase (Homo sapiens, UniProt P11413)). Entry: `COc1cccc(C(=O)Nc2nnc(S(=O)(=O)N(C)Cc3ccccc3)s2)c1`
Result: > 80 µM (inactive)
